- measurement protocol: xn = mol fraction of the nth substance listed, in the solute-free solvent
- particulars: 298.15 K; x2 = 0.1139
reported metric: solubility (g/100 g solution)

The following compounds have reported results that may help.
Measured solubility (g/100 g solution), COC(=O)C1=C(C)NC(C)=C(C(=O)OCC(C)C)C1c1ccccc1[N+](=O)[O-] (centres undefined) + CCCO + O : 2.21

Measured solubility (g/100 g solution), CS(=O)(=O)c1ccc(C(O)C(CF)NC(=O)C(Cl)Cl)cc1 (centres undefined) + CC(C)O + O : 0.504

Measured solubility (g/100 g solution), O=[N+]([O-])c1cc[nH]n1 + CCCO + O : 1.16

Others:
Measured solubility (g/100 g solution), CC(=O)Nc1ccc(OC(=O)c2ccccc2OC(C)=O)cc1 + CC(C)O + O : 0.0537
